Provenance of the data: the supplement of paper PMC6555819

Kindly supply the reported PBM binding z-score values for the records listed here.
Tested on: PPARg homodimer (NR concentration 180 nM)
experimentalProtocol: PBM binding z-score (relative to random genomic background probes); higher = stronger binding; sequences stand for … in GC…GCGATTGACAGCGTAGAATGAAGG
Answer field: number only, no words.

What measured PBM binding z-score goes with CCTAGTTGCTCAGGAGGTCACACACCGGATATGA ?
3.26

What measured PBM binding z-score goes with TTGCCTAGGTCATTCAGGGGCCAGTATAGAAAGC ?
2.69

What measured PBM binding z-score goes with ATACCAAGGTGATCGTGCGGTCGTTGATACTAAC ?
-0.0029

What measured PBM binding z-score goes with TCTCGCAGGACACGAAAGGTCAGAGCTCGACATC ?
2.57

What measured PBM binding z-score goes with TAGCCTAGGTCATCCAGGGGCCAGTATAGAAAGC ?
1.93

What measured PBM binding z-score goes with AGAACGATGGCAATGAGTTGATAGCACGGGTGGC ?
-0.596

What measured PBM binding z-score goes with TCTATTAGTTGATTAGGGCTACCGAAACAGCGGA ?
1.29

What measured PBM binding z-score goes with ATCTCTAGGTAAAGTTCTGTGAAAGATCGATAGA ?
1.26

What measured PBM binding z-score goes with CGTCAATGTTCAACTAAGGTAACGTAAAGCACGC ?
0.877

What measured PBM binding z-score goes with ACAGATAGGTGATGAAGGTAACTCAGGCTATCAT ?
0.111

What measured PBM binding z-score goes with CCGACTGGGGCAAAGGTTACCCTACTCAGTACGA ?
0.732

What measured PBM binding z-score goes with CCAGACAGGTGCAAGGTAACTCAGTCTGGTACGC ?
-0.0621

What measured PBM binding z-score goes with CTACCAAGGTGAACAAGGTAGTTGATTACTATTC ?
0.0631

What measured PBM binding z-score goes with GCATATAGGTAATACAAGGTGGAAGTCCGATTGT ?
-0.138

What measured PBM binding z-score goes with CGTCCAAGGTCATAGGAGGTGAGTGAAGACAGAT ?
2.6

What measured PBM binding z-score goes with CCTAGCAGGCCAATCTGGGTCACTCACGGCTTGA ?
0.645

What measured PBM binding z-score goes with TCTATTAGTTGAAGGGCAACCCACGAGTCCGTTT ?
1.43

What measured PBM binding z-score goes with TCTAGTTGGTCAAAGATCACACACTCGAAATGCG ?
1.93

What measured PBM binding z-score goes with CCAAACAGGTGAGAAGGTAACTCAGCCTCGATTA ?
0.805

What measured PBM binding z-score goes with ATCTCTAGGTAACAAGTTCACTGAAAGAGAGGAC ?
1.6

What measured PBM binding z-score goes with TCTTGTAGATCAAGCAGGTTAAGTAAGCCTGAGT ?
0.192

What measured PBM binding z-score goes with TCCAGTAGGTTACCAATGGGGCATTCAGCTTTCT ?
0.0888

What measured PBM binding z-score goes with TCTATTAGTTGATTAGGGCAATCGAAACAGCGGA ?
1.1

What measured PBM binding z-score goes with GCTAGCAGGCTATTTGGGTCACTCAATGACGGGC ?
0.28

What measured PBM binding z-score goes with CCGACTGGGGCAGAAAGGTCACCATACCATCCGG ?
4.46

What measured PBM binding z-score goes with TGAATGAGGTTAAAGATGAGGGAACGTGGCGTCG ?
0.933

What measured PBM binding z-score goes with TCTTGTAGAACAATAGAGGTTAAGAAAGTGCGCT ?
-0.0635

What measured PBM binding z-score goes with TCTTGTAGATCAGCAGGCTAAGAAAGCTGGCCAA ?
-1.56

What measured PBM binding z-score goes with CAAACTAGGTCAAGGTTAAAGTCGGTTTGTGCCA ?
2.77

What measured PBM binding z-score goes with ATCGAAAGGTCGAGGTGACTATAGAGAAAGGGAA ?
1.35

What measured PBM binding z-score goes with CCTCTTAGTTGACCATAAGGGCAACCGAAGCTCG ?
1.43

What measured PBM binding z-score goes with ATCTCTAGGTAAAGATTGTTCAGTGAATGCAAAT ?
0.219

What measured PBM binding z-score goes with CCAGACAGGTGAAAGGTAATTCAGTCTGGTACGC ?
1.43

What measured PBM binding z-score goes with CGTCCAAGTTCAAAGGTCAGTGAAGAGATGACGG ?
4.76

What measured PBM binding z-score goes with TCATATAGGTAAAGGTGAATGTCGAACGATATGA ?
1.02

What measured PBM binding z-score goes with ATATGTAGGTTAGCTGGGGTCATTTAGACTAGGC ?
2.64

What measured PBM binding z-score goes with GATTGTAGATCAAGGTTAAGAAAGACTAAGCTAA ?
-0.088

What measured PBM binding z-score goes with TGAATGAGGTTAAAGATCAGGGTACGTGGCGTCG ?
1.09

What measured PBM binding z-score goes with CTAACTAGGTCATCCAGGACAGTGAATACATTGA ?
2.45

What measured PBM binding z-score goes with CGAACTAGGTCAAGAGGTCAAAGTCCGCTTCCCG ?
5.23

What measured PBM binding z-score goes with TAGACAGGGTCAAAGGCCAGAGTACGAATGTCGA ?
1.55

What measured PBM binding z-score goes with GGAACGCGGGCAAGTTGATAGCAGAGTTTGATGG ?
-0.831

What measured PBM binding z-score goes with ATATGTAGGTTACATCCGGGTCATACAGGCTATG ?
3.84

What measured PBM binding z-score goes with TCGAGTAGGTTACCAATGGGGCCTTCAGCTTTCT ?
-0.653

What measured PBM binding z-score goes with GCAGACAGGTCAAACGCAGGTAACTCAGGGTGGC ?
2

What measured PBM binding z-score goes with CGTCCAAGGTCAGCATGTCAGTGAAAGCGACGTG ?
2.58

What measured PBM binding z-score goes with CAGCCTAGGTCAGGGCCAGTGTAGGAGGAACGTT ?
0.588

What measured PBM binding z-score goes with CGTTACGGGTCAAGGTTATAGCACGGGTGGTACG ?
1.78

What measured PBM binding z-score goes with CCTACTGGGCCAACGGTCATTGATTCCAATGCTC ?
0.249

What measured PBM binding z-score goes with CCTTACGGGTGACGAGGTTATAGCACGACGAGCG ?
1.21

What measured PBM binding z-score goes with GCGACTGGGGCATCAGCAGGTTACAATAACTTAA ?
0.365
